// data source = PubChem BioAssay

Assay: CellTiter-Glo luminescent readout of SW480 viability loss, NPC library primary (AID 1117343)
Details: CellTiter-Glo luminescence; at 20 µM (top of the series) unless noted
Each entry below carries its reported viability decrease (inhibition).
Respond numerically; units are % and should not be typed.

Below: 2 compounds and their reported viability decrease (inhibition).
CCCCCCCCCCCCCCCC(=O)O: 32.7
CC1=C(CC(=O)O)c2cc(F)ccc2/C1=C\c1ccc(S(C)(=O)=O)cc1: 88.7

Exercise: Look up viability decrease (inhibition) for this compound: CN1C(=O)CC(C)(c2ccccc2)C1=O (centres undefined)
Solution: 19.6

Exercise: Look up viability decrease (inhibition) for this compound: CC(=O)Nc1ccc(C(=O)O)cc1
Solution: 13.7

Exercise: Look up viability decrease (inhibition) for this compound: O=C(O)CN(CC(=O)O)Cc1cc2c(-c3ccccc3C(=O)O)c3cc(CN(CC(=O)O)CC(=O)O)c(=O)cc-3oc2cc1O
Solution: 25.8

Exercise: Look up viability decrease (inhibition) for this compound: C[N+]1(C)CCC(=C(c2ccccc2)c2ccccc2)CC1
Solution: 40.8

Exercise: Look up viability decrease (inhibition) for this compound: Cc1c(C)c2c(c(C)c1O)CCC(C)(COc1ccc(CC3SC(=O)NC3=O)cc1)O2 (centres undefined)
Solution: 110

Exercise: Look up viability decrease (inhibition) for this compound: S=C=Nc1ccc(N=C=S)cc1
Solution: 73.5

Exercise: Look up viability decrease (inhibition) for this compound: Nc1cccc2c1CN(C1CCC(=O)NC1=O)C2=O (centres undefined)
Solution: -19.5

Exercise: Look up viability decrease (inhibition) for this compound: COc1cccc(N(C)C(=S)Oc2ccc3c(c2)CCCC3)n1
Solution: 54.5

Exercise: Look up viability decrease (inhibition) for this compound: CC(=O)Oc1cc(C(C)C)c(OCCN(C)C)cc1C
Solution: 20.7

Exercise: Look up viability decrease (inhibition) for this compound: NCCc1ccn[nH]1
Solution: 12.5

Exercise: Look up viability decrease (inhibition) for this compound: CN1CCN(C2=Nc3cc(Cl)ccc3Nc3ccccc32)CC1
Solution: 66.6

Exercise: Look up viability decrease (inhibition) for this compound: CC(C)(C(=O)O)c1ccc(C(O)CCCN2CCC(C(O)(c3ccccc3)c3ccccc3)CC2)cc1 (centres undefined)
Solution: 33.1

Exercise: Look up viability decrease (inhibition) for this compound: CCN[C@H]1C[C@H](C)S(=O)(=O)c2sc(S(N)(=O)=O)cc21
Solution: -12.1

Exercise: Look up viability decrease (inhibition) for this compound: O=S(=O)(O)NC1CCCCC1
Solution: 8.9

Exercise: Look up viability decrease (inhibition) for this compound: CC(=O)[C@H]1CC[C@H]2[C@@H]3CC=C4C[C@@H](O)CC[C@]4(C)[C@H]3CC[C@]12C
Solution: 82

Exercise: Look up viability decrease (inhibition) for this compound: O=C(O)C(=O)Nc1cccc(-c2nn[nH]n2)c1
Solution: 32.2

Exercise: Look up viability decrease (inhibition) for this compound: COCC(=O)O[C@]1(CCN(C)CCCc2nc3ccccc3[nH]2)CCc2cc(F)ccc2[C@@H]1C(C)C
Solution: 130

Exercise: Look up viability decrease (inhibition) for this compound: Clc1ccc(Cn2c(CN3CCCC3)nc3ccccc32)cc1
Solution: 61.5
